assay: Plasma pharmacokinetics of OSI-930; assay type: in vivo, human; conditions: human, plasma, po, Time to peak plasma concentrations; once a day and twice a day cohorts
METRIC NAME: Tmax

> print(dat)
                                   compound  metric.name    reading
1  O=C(Nc1ccc(OC(F)(F)F)cc1)c1sccc1NCc1ccnc2ccccc12 [OSI-930]         Tmax  2 to 10 h

====

assay: Plasma pharmacokinetics of OSI-930; type: in vivo, human; conditions: human, plasma, oral, 200 mg, Tmax, 200 mg once a day (n = 1); day 22, steady state
METRIC NAME: Tmax

> print(dat)
                              sample.smiles  reading
1  O=C(Nc1ccc(OC(F)(F)F)cc1)c1sccc1NCc1ccnc2ccccc12      6 h

====

assay: Plasma pharmacokinetics of OSI-930; format: in vivo, human; conditions: human, plasma, oral, 200 mg, Cmin, 200 mg once a day (n = 1); day 22, steady state
METRIC NAME: concentration at 22 day (ng/mL)

> print(dat)
                              sample.smiles              metric.name  reading
1  O=C(Nc1ccc(OC(F)(F)F)cc1)c1sccc1NCc1ccnc2ccccc12  concentration at 22 day     77.9

====

assay: Plasma pharmacokinetics of OSI-930; type: in vivo, human; details: human, plasma, oral, 600 mg, Cmax, 600 mg twice a day (n = 6); day 22, steady state
METRIC NAME: Cmax

> print(dat)
                                   compound  metric.name     reading
1  O=C(Nc1ccc(OC(F)(F)F)cc1)c1sccc1NCc1ccnc2ccccc12 [OSI-930]         Cmax  2030 ng/mL

====

assay: Plasma pharmacokinetics of OSI-930; format: in vivo, human; settings: human, plasma, oral, 600 mg, Tmax, 600 mg twice a day (n = 6); day 22, steady state
METRIC NAME: Tmax

> print(dat)
                              sample.smiles  metric.name  reading
1  O=C(Nc1ccc(OC(F)(F)F)cc1)c1sccc1NCc1ccnc2ccccc12         Tmax    3.5 h

====

experiment: Plasma pharmacokinetics of OSI-930; format: in vivo, human; conditions: human, plasma, oral, 100 mg, Cmax, 100 mg once a day (n = 1); day 22, steady state
METRIC NAME: Cmax (ng/mL)

> print(dat)
                                   molecule  reading
1  O=C(Nc1ccc(OC(F)(F)F)cc1)c1sccc1NCc1ccnc2ccccc12 [OSI-930]      228

====

experiment: Plasma pharmacokinetics of OSI-930; format: in vivo, human; settings: human, plasma, oral, 800 mg, Tmax, 800 mg once a day (n = 2); day 22, steady state
METRIC NAME: Tmax (h)

> print(dat)
                                   compound  units.of.measure  reading
1  O=C(Nc1ccc(OC(F)(F)F)cc1)c1sccc1NCc1ccnc2ccccc12 [OSI-930]                 h      4.1

====

assay: Plasma pharmacokinetics of OSI-930; format: in vivo, human; details: human, plasma, oral, 500 mg, Cmin, 500 mg twice a day (n = 21); day 22, steady state
METRIC NAME: concentration at 22 day (ng/mL)

> print(dat)
                                   compound              metric.name  reading
1  O=C(Nc1ccc(OC(F)(F)F)cc1)c1sccc1NCc1ccnc2ccccc12 [OSI-930]  concentration at 22 day      547

====

test: Plasma pharmacokinetics of OSI-930; type: in vivo, human; details: human, plasma, oral, 1200 mg, Tmax, 1,200 mg once a day (n = 1); day 22, steady state
METRIC NAME: Tmax

> print(dat)
                                   compound  metric.name  reading
1  O=C(Nc1ccc(OC(F)(F)F)cc1)c1sccc1NCc1ccnc2ccccc12 [OSI-930]         Tmax      4 h

====

test: Plasma pharmacokinetics of OSI-930; format: in vivo, human; conditions: human, plasma, oral, 800 mg, AUCtau, 800 mg once a day (n = 2); day 22, steady state
METRIC NAME: AUC

> print(dat)
                                   molecule  metric.name        reading
1  O=C(Nc1ccc(OC(F)(F)F)cc1)c1sccc1NCc1ccnc2ccccc12 [OSI-930]          AUC  11300 ng·h/mL

====

test: Plasma pharmacokinetics of OSI-930; format: in vivo, human; settings: human, plasma, oral, 400 mg, Cmax, 400 mg twice a day (n = 6); day 22, steady state
METRIC NAME: Cmax (ng/mL)

> print(dat)
                                   molecule  metric.name  reading
1  O=C(Nc1ccc(OC(F)(F)F)cc1)c1sccc1NCc1ccnc2ccccc12 [OSI-930]         Cmax      802

====

assay: Plasma pharmacokinetics of OSI-930; type: in vivo, human; conditions: human, plasma, oral, 1200 mg, Cmax, 1,200 mg once a day (n = 1); day 22, steady state
METRIC NAME: Cmax (ng/mL)

> print(dat)
                                   compound  units.of.measure  reading
1  O=C(Nc1ccc(OC(F)(F)F)cc1)c1sccc1NCc1ccnc2ccccc12 [OSI-930]             ng/mL     1990

====

test: Plasma pharmacokinetics of OSI-930; format: in vivo, human; conditions: human, plasma, oral, 800 mg, Cmax, 800 mg once a day (n = 2); day 22, steady state
METRIC NAME: Cmax (ng/mL)

> print(dat)
                              sample.smiles  units.of.measure  reading
1  O=C(Nc1ccc(OC(F)(F)F)cc1)c1sccc1NCc1ccnc2ccccc12             ng/mL      984

====

experiment: Plasma pharmacokinetics of OSI-930; format: in vivo, human; settings: human, plasma, oral, 1200 mg, T1/2, 1,200 mg once a day (n = 1); day 22, steady state
METRIC NAME: half-life

> print(dat)
                                   compound  metric.name  reading
1  O=C(Nc1ccc(OC(F)(F)F)cc1)c1sccc1NCc1ccnc2ccccc12 [OSI-930]    half-life   20.2 h

====

test: Plasma pharmacokinetics of OSI-930; type: in vivo, human; details: human, plasma, oral, 500 mg, Tmax, 500 mg twice a day (n = 21); day 22, steady state
METRIC NAME: Tmax (h)

> print(dat)
                              sample.smiles  units.of.measure  reading
1  O=C(Nc1ccc(OC(F)(F)F)cc1)c1sccc1NCc1ccnc2ccccc12                 h      3.6

====

experiment: Plasma pharmacokinetics of OSI-930; type: in vivo, human; details: human, plasma, oral, 500 mg, Cmax, 500 mg twice a day (n = 21); day 22, steady state
METRIC NAME: Cmax (ng/mL)

> print(dat)
                              sample.smiles  metric.name  units.of.measure  reading
1  O=C(Nc1ccc(OC(F)(F)F)cc1)c1sccc1NCc1ccnc2ccccc12         Cmax             ng/mL     1010

====

experiment: Plasma pharmacokinetics of OSI-930; format: in vivo, human; settings: human, plasma, oral, 400 mg, AUCtau, 400 mg once a day (n = 2); day 22, steady state
METRIC NAME: AUC (ng·h/mL)

> print(dat)
                              sample.smiles  metric.name  reading
1  O=C(Nc1ccc(OC(F)(F)F)cc1)c1sccc1NCc1ccnc2ccccc12          AUC    10700

====

test: Plasma pharmacokinetics of OSI-930; type: in vivo, human; conditions: human, plasma, oral, 1600 mg, Cmin, 1,600 mg once a day (n = 3); day 22, steady state
METRIC NAME: concentration at 22 day (ng/mL)

> print(dat)
                              sample.smiles              metric.name  reading
1  O=C(Nc1ccc(OC(F)(F)F)cc1)c1sccc1NCc1ccnc2ccccc12  concentration at 22 day      249

====

experiment: Plasma pharmacokinetics of OSI-930; format: in vivo, human; settings: human, plasma, oral, 800 mg, Cmin, 800 mg once a day (n = 2); day 22, steady state
METRIC NAME: concentration at 22 day (ng/mL)

> print(dat)
                              sample.smiles  units.of.measure  reading
1  O=C(Nc1ccc(OC(F)(F)F)cc1)c1sccc1NCc1ccnc2ccccc12             ng/mL      304
